Ref: patent US20230135894A1

target: MK2 (Homo sapiens, UniProt P49137); experiment: MK2 degradation in human SW1353 cells (MSD, 24 h); assay type: cell-based; design: endogenous in cells; host or cells: SW-1353 (ATCC HTB-94); conditions: read-out: MK2 MSD SW1353 degradation 24 h GMean External Abs DC50
Sequence (P49137 whole entry): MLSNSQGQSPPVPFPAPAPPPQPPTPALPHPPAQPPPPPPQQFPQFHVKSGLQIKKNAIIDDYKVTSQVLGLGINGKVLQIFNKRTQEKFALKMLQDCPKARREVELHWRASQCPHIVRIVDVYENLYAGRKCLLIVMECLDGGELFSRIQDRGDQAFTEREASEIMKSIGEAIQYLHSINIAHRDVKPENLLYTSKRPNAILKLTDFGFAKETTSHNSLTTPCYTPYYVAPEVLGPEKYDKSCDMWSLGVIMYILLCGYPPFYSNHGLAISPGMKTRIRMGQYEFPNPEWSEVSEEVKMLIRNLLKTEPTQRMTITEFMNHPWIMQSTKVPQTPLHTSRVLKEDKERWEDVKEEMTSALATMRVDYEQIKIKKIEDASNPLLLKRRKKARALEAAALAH

# MOLECULE, DC50
records = [
    ("C[C@@H]1CNc2c(sc3ccc4nc(N5CCC(N6CC7(CCN(c8ccc9c(c8)n(C)c(=O)n9C8CCC(=O)NC8=O)CC7)C6)CC5)ccc4c23)C(=O)N1 (stereo partly drawn)", "< 1 nM"),
    ("Cn1c(=O)n(C2CCC(=O)NC2=O)c2ccc(N3CCC4(CC3)CC(N3CCN(c5cc(-c6cc7c([nH]6)C6(CC6)CNC7=O)ccn5)CC3)C4)cc21 (stereo not drawn)", "> 100 nM"),
    ("Cn1c(=O)n(C2CCC(=O)NC2=O)c2cccc(N3CC(N4CCN(c5ccc(-c6cc(-c7cc8c([nH]7)C7(CC7)CNC8=O)ccn6)cc5)CC4)C3)c21 (stereo not drawn)", "< 1 nM"),
]
